test system: LNCaP; experiment: Cytotoxicity against human LNCAP cells assessed as growth inhibition after 72 hrs by MTS assay; format: functional
attributeMeasured: GI50 (µM)
Express the result in µM but write the number alone.

Answered cases to consult:
structure: O=c1c2cccnc2sn1Cc1ccc(C(F)(F)F)cc1
attributeMeasured: GI50
unitName: µM
measuredValue: 36.9
--
structure: O=C(Cn1sc2ccccc2c1=O)NCc1ccccn1
attributeMeasured: GI50
unitName: µM
measuredValue: 73.7
--
structure: Cc1ccc(-c2csc(-n3sc4ccccc4c3=O)n2)cc1
attributeMeasured: GI50
unitName: µM
measuredValue: 67.2

Given the compound CCOC(=O)Cn1sc2nc(C)cc(C)c2c1=O , what is its reported GI50?
50

And the next one, O=c1c2cccnc2sn1-c1ccc(F)cc1 ?
36.2

* * *

target: Histone acetyltransferase p300 (Homo sapiens, UniProt Q09472); assay: Inhibition of recombinant human p300 using biotinylated histone H3 (1 to 21 amino acid residues) as substrate at 50 uM preincubated for 10 mins followed by acetyl-CoA addition measured after 10 mins by time resolved fluorescence assay
Sequence (Q09472 whole entry, the tested form may be a part): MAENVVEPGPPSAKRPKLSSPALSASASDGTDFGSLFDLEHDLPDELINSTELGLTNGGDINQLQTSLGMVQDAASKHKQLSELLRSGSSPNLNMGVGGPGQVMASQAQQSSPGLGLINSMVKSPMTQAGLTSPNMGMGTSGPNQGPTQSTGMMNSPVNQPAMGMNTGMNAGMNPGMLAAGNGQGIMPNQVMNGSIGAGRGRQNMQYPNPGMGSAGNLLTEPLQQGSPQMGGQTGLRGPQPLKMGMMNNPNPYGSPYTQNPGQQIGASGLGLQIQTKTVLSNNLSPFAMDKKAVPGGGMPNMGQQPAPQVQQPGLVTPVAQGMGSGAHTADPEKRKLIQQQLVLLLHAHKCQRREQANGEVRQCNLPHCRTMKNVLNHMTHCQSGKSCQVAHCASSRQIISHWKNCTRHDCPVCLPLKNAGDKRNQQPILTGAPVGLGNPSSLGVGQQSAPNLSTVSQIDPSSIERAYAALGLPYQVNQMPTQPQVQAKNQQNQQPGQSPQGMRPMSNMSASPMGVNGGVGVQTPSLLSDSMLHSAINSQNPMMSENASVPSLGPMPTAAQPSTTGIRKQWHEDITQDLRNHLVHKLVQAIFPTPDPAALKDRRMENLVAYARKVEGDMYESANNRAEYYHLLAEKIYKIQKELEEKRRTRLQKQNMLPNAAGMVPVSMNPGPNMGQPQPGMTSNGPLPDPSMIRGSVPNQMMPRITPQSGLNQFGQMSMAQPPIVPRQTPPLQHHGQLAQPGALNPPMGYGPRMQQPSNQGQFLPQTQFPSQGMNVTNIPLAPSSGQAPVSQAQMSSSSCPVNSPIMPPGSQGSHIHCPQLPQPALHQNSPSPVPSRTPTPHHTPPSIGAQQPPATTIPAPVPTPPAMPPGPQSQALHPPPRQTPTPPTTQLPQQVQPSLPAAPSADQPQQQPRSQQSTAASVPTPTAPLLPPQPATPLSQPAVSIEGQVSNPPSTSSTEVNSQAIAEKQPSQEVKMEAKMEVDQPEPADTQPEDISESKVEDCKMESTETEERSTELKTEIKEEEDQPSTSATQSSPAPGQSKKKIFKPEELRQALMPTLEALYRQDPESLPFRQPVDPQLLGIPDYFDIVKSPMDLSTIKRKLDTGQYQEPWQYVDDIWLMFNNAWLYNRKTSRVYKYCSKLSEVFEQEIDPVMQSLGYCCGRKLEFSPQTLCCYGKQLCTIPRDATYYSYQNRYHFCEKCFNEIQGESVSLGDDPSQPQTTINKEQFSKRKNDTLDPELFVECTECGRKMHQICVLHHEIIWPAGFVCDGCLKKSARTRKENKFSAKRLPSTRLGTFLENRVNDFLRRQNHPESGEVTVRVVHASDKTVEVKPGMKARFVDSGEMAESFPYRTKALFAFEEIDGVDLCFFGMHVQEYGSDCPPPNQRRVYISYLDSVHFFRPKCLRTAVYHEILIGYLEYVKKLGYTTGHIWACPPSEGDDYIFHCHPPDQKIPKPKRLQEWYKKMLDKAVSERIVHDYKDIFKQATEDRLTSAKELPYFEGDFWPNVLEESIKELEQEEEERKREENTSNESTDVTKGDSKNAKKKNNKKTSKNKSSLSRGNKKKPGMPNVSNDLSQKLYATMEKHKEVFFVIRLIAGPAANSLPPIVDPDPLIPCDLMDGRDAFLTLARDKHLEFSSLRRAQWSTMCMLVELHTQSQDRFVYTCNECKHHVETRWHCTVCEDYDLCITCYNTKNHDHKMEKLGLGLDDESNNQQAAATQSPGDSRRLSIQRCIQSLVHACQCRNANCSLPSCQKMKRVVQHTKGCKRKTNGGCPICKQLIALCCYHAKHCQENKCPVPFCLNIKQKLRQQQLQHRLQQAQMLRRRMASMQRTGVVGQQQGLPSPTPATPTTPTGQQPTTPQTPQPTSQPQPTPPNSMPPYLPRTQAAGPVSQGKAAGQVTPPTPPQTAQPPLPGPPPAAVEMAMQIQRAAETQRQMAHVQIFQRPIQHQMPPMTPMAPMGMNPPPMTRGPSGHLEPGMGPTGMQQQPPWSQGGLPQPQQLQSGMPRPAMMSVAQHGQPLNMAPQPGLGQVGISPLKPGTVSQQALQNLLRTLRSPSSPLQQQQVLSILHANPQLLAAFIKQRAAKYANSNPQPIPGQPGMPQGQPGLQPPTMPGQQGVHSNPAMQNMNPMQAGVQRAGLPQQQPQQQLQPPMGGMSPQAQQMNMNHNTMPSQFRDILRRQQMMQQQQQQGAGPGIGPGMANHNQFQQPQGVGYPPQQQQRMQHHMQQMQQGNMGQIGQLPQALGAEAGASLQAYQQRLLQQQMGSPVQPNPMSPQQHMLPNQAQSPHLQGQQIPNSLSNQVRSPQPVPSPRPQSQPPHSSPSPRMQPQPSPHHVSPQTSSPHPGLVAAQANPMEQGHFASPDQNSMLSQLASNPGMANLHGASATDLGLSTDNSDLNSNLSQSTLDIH
Short version: inhibition at least 70% is criterion met, less is criterion not met.

For orientation, consider the following solved cases.
compound: O=c1c2ccccc2sn1-c1nc2ccccc2s1
category: criterion not met

compound: O=C(Cn1sc2ccccc2c1=O)Nc1nccs1
category: criterion not met

compound: CCNC(=O)OCCn1sc2nc(C)cc(C)c2c1=O
category: criterion not met

Form field: inhibition at least 70%? Entry: Cc1cc(C)c2c(=O)n(CC(=O)Nc3ccc(Cl)cc3)sc2n1
criterion not met

And the next one, COCCNC(=O)Cn1sc2ccccc2c1=O ?
criterion not met

And the next one, CC(C)CNC(=O)CCn1sc2ccccc2c1=O ?
criterion not met

And the next one, CCOC(=O)Cn1sc2nc(C)cc(C)c2c1=O ?
criterion not met

And the next one, O=c1c2cccnc2sn1-c1ccc(Cl)cc1 ?
criterion met

* * *

target: Histone acetyltransferase KAT2B (Homo sapiens); experiment: Inhibition of recombinant human KAT2B catalytic domain using biotinylated histone H3 (1 to 21 amino acid residues) as substrate at 50 uM preincubated for 10 mins followed by acetyl-CoA addition measured after 10 mins by time resolved fluorescence assay
Sequence (Q92831 whole entry, looked up, the tested form may be a part): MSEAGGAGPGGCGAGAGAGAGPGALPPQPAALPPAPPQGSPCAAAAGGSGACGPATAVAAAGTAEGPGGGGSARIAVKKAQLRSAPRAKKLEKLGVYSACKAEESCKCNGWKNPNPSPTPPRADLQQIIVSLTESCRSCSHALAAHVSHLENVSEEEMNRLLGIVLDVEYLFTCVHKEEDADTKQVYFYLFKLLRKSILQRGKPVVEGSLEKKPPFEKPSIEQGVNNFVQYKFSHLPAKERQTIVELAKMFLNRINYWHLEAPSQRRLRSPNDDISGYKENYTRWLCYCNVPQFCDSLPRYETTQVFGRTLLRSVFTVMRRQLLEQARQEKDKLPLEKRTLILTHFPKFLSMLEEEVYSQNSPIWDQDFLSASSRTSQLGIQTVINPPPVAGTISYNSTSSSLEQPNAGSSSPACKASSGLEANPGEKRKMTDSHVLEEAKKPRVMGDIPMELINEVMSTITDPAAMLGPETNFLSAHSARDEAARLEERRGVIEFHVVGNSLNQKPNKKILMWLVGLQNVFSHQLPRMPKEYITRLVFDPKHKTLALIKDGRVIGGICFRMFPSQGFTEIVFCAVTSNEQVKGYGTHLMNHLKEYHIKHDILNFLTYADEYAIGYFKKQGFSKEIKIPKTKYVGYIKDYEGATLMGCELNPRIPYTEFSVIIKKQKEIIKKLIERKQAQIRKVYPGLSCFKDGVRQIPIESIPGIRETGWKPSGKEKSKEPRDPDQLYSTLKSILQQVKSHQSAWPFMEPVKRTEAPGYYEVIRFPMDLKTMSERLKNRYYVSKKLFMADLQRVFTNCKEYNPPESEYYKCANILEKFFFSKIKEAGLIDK
Short version: inhibition at least 90% is MET, less is NOT MET.

For orientation, consider the following solved cases.
compound: O=c1c2cccnc2sn1-c1ccc(Cl)cc1
category: MET

compound: CC(C)CNC(=O)Cn1sc2ccccc2c1=O
category: MET

compound: O=c1c2cccnc2sn1-c1ccc(F)cc1
category: MET

compound: O=C(O)CCCn1sc2ccccc2c1=O
category: NOT MET

compound: O=C(O)C(c1ccccc1)n1sc2ccccc2c1=O (stereo unspecified)
category: NOT MET

compound: CCNC(=O)OCCn1sc2nc(C)cc(C)c2c1=O
category: NOT MET

compound: O=c1c2cccnc2sn1Cc1ccc(Cl)c(Cl)c1
category: MET

compound: O=c1c2ccccc2sn1-c1nccs1
category: MET

compound: O=C(Cn1sc2ccccc2c1=O)Nc1nccs1
category: MET

compound: CC(C)CNC(=O)CCn1sc2ccccc2c1=O
category: NOT MET

Form field: inhibition at least 90%? Entry: Cc1cc(C)c2c(=O)n(C(=O)c3cccs3)sc2n1
MET

And the next one, O=c1c2cccnc2sn1Cc1ccc(Cl)cc1 ?
NOT MET

And the next one, Cc1cc(C)c2c(=O)n(CN(C)Cc3ccccc3)sc2n1 ?
NOT MET

And the next one, CCOC(=O)c1ccc(-n2sc3ccccc3c2=O)cc1 ?
MET

And the next one, O=c1c2cccnc2sn1Cc1ccc(C(F)(F)F)cc1 ?
NOT MET
